Here the recorded AUC(0-t) at 24 h is given for each entry.
- Assay: AUC (0 to 24 hrs) in Sprague-Dawley rat at 5 mg/kg, po
- Format: ADME, organism-based
- Design: time < 24 hr, dose 5 mg/kg, route oral
- Applied Conditions: plasma
Dear colleague, please return just the value in ng·h/mL, with no unit written.

Cpd Smiles: COc1nc2ccc(F)cc2nc1NC(=O)N1CCN(c2cc(C)cc(C)c2)CC1
AUC(0-t) at 24 h [ng·h/mL]: 1120

[Q] Supply AUC(0-t) at 24 h value. Item: COc1cc(OC)cc(N2CCN(C(=O)Nc3nc4cccc(OC)c4nc3OC)CC2)c1
[A] 2610

###

- Assay: AUC (0 to 24 hrs) in Sprague-Dawley rat at 10 mg/kg, iv
- Assay type: ADME, organism-based
- Design: time < 24 hr, dose 10 mg/kg, route intravenous
- Applied Conditions: plasma
Quantity Measured: AUC(0-t) at 24 h (ng·h/mL)
Return type: number; implicit unit ng·h/mL.

[Q] Give recorded AUC(0-t) at 24 h. COc1cc(OC)cc(N2CCN(C(=O)Nc3nc4cc(F)ccc4nc3OC)CC2)c1 [SUPINOXIN]
[A] 19200

###

Entries and their half-life
- Assay: Terminal half life in Sprague-Dawley rat at 5 mg/kg, po
- Format: ADME, organism-based
- Set-up: dose 5 mg/kg, route oral
- Applied Conditions: in vivo, read-out: beta t1/2 (converted)
Express your answer in h, writing the number without its unit.

[Q] Give the value of half-life reported for the following: COc1nc2ccc(F)cc2nc1NC(=O)N1CCN(c2cc(C)cc(C)c2)CC1
[A] 6.7

[Q] Give recorded half-life. COc1cc(OC)cc(N2CCN(C(=O)Nc3nc4cccc(OC)c4nc3OC)CC2)c1
[A] 10.9

###

- Assay: Terminal half life in Sprague-Dawley rat at 10 mg/kg, iv
- Assay type: ADME, organism-based
- Set-up: dose 10 mg/kg, route intravenous
- Applied Conditions: in vivo, read-out: beta t1/2 (converted)
Quantity Measured: half-life (min)
Numbers only; they are read as min.

[Q] Identify half-life associated with the molecule COc1cc(OC)cc(N2CCN(C(=O)Nc3nc4cc(F)ccc4nc3OC)CC2)c1
[A] 390

###

- Assay: Terminal half life in Sprague-Dawley rat at 10 mg/kg, po
- Format: ADME, organism-based
- Parameters: dose 10 mg/kg, route oral
- Applied Conditions: in vivo, read-out: beta t1/2 (converted)
Quantity Measured: half-life (min)
I only need the number, in min, no unit after it.

Sample answers from the record:
Molecule: COc1cc(OC)cc(N2CCN(C(=O)Nc3nc4cc(F)ccc4nc3OC)CC2)c1 [SUPINOXIN]
Reported Value: 474

Molecule: COc1cc(OC)cc(N2CCN(C(=O)Nc3nc4cccc(C)c4nc3OC)CC2)c1
Reported Value: 1450

[Q] Supply measured half-life of COc1nc2c(OC)cccc2nc1NC(=O)N1CCN(c2cc(C)cc(C)c2)CC1 in your reply.
[A] 390

[Q] Please indicate half-life recorded for COc1cc(OC)cc(N2CCN(C(=O)Nc3nc4c(C)cccc4nc3OC)CC2)c1
[A] 642

###

- Assay: Oral bioavailability in Sprague-Dawley rat at 5 mg/kg
- Type: ADME, organism-based
- Applied Conditions: in vivo
Quantity Measured: bioavailability
Be sure to follow the number with its unit.

Cpd Smiles: COc1cc(OC)cc(N2CCN(C(=O)Nc3nc4cccc(OC)c4nc3OC)CC2)c1
bioavailability: 32.4%

For the next question, use this compound.
[Q] Using the record for COc1nc2ccc(F)cc2nc1NC(=O)N1CCN(c2cc(C)cc(C)c2)CC1 , state its measured bioavailability.
[A] 77.8%
